Data provenance is patent US20210388087A1.

target: T1, CD3 epsilon homodimer protein (UniProt P07766 23-126); test: SPR, antibody over immobilised CD3e homodimer;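 further: SPR at 25 °C with CD3 epsilon homodimer amine-coupled to a CM4 sensor chip and antibody flowed over as analyte in HBS-EP+ running buffer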
T1 construct: also called CD3 (CD3 epsilon)
T1 sequence (P07766 23-126): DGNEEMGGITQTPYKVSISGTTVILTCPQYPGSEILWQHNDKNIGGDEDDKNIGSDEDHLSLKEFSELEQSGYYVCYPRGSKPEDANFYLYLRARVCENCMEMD
Measurement Name: KD ratio to GLS3000
Give the figure by itself; no unit, no explanation.

* CE115HA000/GLS3000 Y96E (antibody, IgG1, name in Kabat numbering, V domains shown, one-arm IgG1) VH: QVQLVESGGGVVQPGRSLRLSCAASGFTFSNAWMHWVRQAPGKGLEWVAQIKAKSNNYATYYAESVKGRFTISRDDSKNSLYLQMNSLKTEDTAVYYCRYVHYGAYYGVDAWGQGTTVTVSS VL: DIVMTQSPLSLPVTPGEPASISCRSSQSLVHSNRNTYLHWYQQKPGQAPRLLIYKVSNRFSGVPDRFSGSGSGTDFTLKISRVEAEDVGVYYCGQGTQVPETFGQGTKLEIK | 46.8
* CE115HA000/GLS3000 H34T (antibody, IgG1, name in Kabat numbering, V domains shown, one-arm IgG1) VH: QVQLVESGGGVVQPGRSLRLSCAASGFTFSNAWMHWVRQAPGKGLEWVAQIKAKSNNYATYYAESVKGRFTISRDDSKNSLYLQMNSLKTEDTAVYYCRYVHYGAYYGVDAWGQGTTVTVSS VL: DIVMTQSPLSLPVTPGEPASISCRSSQSLVHSNRNTYLTWYQQKPGQAPRLLIYKVSNRFSGVPDRFSGSGSGTDFTLKISRVEAEDVGVYYCGQGTQVPYTFGQGTKLEIK | 1.1

Here's the next entry for you.
The reported value for CE115HA000/GLS3000 F55M (antibody, IgG1, name in Kabat numbering, V domains shown, one-arm IgG1) VH: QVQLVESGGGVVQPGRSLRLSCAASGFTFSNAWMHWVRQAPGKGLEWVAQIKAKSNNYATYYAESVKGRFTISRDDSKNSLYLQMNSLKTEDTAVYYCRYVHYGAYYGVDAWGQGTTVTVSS VL: DIVMTQSPLSLPVTPGEPASISCRSSQSLVHSNRNTYLHWYQQKPGQAPRLLIYKVSNRMSGVPDRFSGSGSGTDFTLKISRVEAEDVGVYYCGQGTQVPYTFGQGTKLEIK in terms of KD ratio to GLS3000 is 1.29
